study.system: GST-Rab7 (Homo sapiens)
Sequence (P51149 whole entry): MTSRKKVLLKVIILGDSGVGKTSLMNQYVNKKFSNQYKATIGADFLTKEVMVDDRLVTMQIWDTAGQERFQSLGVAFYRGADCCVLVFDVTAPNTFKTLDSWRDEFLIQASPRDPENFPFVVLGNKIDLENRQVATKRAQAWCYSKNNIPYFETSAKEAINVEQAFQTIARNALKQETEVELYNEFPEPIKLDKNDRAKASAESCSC

{"columns": ["molecule", "Kd"],
 "data": [
  ["Cc1cc(C)n2c1C=C1C=CC(CCC(=O)NCCNC(=O)OC3C(COP(=O)(O)OP(=O)(O)OP(=O)(O)O)OC(n4cnc5c(=O)[nH]c(N)nc54)C3O)=[N+]1[B-]2(F)F (stereo not shown)", "94 nM"]
]}

====

study.system: GST-GFP (Schistosoma japonicum, UniProt P08515)
Sequence (P08515 2-218, added parts left off): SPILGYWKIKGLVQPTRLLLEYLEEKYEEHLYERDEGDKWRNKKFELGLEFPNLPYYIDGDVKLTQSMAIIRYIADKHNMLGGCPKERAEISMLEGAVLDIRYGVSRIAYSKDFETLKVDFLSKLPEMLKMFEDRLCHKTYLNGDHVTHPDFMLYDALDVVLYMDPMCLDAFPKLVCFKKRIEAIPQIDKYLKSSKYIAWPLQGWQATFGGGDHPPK
assay.details: biochemical
pEC50: −log10 of the molar value.
assay.readout: pEC50

{"columns": ["compound", "study.system", "assay.readout", "obs.value"],
 "data": [
  ["N[C@@H](CCC(=O)N[C@@H](CS)C(=O)NCC(=O)O)C(=O)O [GSH, γ-glu-cys-gly]", "GST-GFP (Schistosoma japonicum, UniProt P08515)", "pEC50", 4.41]
]}

====

study.system: GST-Rab7 (Homo sapiens)
assay.details: Competition of nucleotides with Bodipy-FL-GTP for bead-bound GST-Rab7
conditions.used: 10 nM GST-Rab7 preloaded, 1 μM GTP*
pEC50: −log10 of the molar value.

{"columns": ["structure.string", "pEC50"],
 "data": [
  ["Nc1nc2c(ncn2[C@@H]2O[C@H](COP(=O)(O)OP(=O)(O)O)[C@@H](O)[C@H]2O)c(=O)[nH]1", 6.25]
]}

====

study.system: GST-GFP (Schistosoma japonicum, UniProt P08515)
pKi: −log10 of the molar value.

{"columns": ["compound", "pKi"],
 "data": [
  ["N[C@@H](CCC(=O)N[C@@H](CS)C(=O)NCC(=O)O)C(=O)O [GSH, γ-glu-cys-gly]", 4.46]
]}
